These measurements were taken from patent US12065399B2.

- EXPERIMENTAL_SYSTEM: human mGlu4 receptor (Homo sapiens (Human), UniProt Q14833)
- Sequence (Q14833 33-912): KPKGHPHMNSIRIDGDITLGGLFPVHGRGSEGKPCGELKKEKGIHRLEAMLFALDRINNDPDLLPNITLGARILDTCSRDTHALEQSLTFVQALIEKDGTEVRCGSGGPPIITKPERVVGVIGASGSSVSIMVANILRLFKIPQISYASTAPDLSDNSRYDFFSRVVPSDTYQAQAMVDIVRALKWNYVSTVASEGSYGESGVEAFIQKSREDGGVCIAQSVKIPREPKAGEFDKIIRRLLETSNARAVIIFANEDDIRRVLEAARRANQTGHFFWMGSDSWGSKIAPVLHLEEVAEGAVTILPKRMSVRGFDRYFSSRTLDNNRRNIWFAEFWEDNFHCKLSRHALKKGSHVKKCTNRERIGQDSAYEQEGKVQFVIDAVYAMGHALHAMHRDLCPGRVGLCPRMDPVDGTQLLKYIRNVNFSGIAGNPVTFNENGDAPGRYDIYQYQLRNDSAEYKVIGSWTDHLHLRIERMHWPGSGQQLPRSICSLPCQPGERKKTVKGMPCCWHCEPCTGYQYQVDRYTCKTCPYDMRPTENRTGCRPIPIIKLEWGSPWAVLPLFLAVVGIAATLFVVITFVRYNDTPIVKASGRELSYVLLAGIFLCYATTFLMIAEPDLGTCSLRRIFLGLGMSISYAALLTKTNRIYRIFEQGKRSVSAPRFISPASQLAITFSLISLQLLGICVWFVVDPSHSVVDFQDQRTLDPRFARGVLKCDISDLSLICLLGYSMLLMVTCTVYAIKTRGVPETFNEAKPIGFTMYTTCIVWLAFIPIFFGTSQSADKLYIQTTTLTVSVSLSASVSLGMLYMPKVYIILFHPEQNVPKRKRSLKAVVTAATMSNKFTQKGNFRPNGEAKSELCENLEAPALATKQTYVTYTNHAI
- RUN_DESCRIPTION: Intracellular Ca2+ mobilization assay (FLIPR), mGlu4 NAM
- CONDITION_NOTES: HEK-293 cells stably transfected with human mGlu4; inhibition of L-AP4 (EC80) response; IC50
Known log10 of EC50 of a selection of compounds
Values below are the log10 of the recorded EC50, with nM as the unit.

Worked set:
[[record]]
compound = "Cc1c(F)cccc1S(=O)(=O)Nc1c(F)cc(C#Cc2ccccc2)cc1F [Example 37]"
experimental_readout = "log10 of EC50"
obs_value = 3.02

[[record]]
compound = "Cn1ccc(S(=O)(=O)Nc2c(F)cc(C#Cc3ccccc3)cc2F)n1 [Example 26]"
experimental_readout = "log10 of EC50"
obs_value = 4.20

[[record]]
compound = "O=S(=O)(Nc1c(F)cc(C#Cc2ccccc2)cc1F)c1cccc(Cl)c1F [Example 35]"
experimental_readout = "log10 of EC50"
obs_value = 3.21

[[record]]
compound = "Cc1c(F)cccc1S(=O)(=O)Nc1c(F)cc(C#Cc2cncc(F)c2)cc1F [Example 57]"
experimental_readout = "log10 of EC50"
obs_value = 2.76

[[record]]
compound = "Cc1cc(F)c(C)c(S(=O)(=O)Nc2c(F)cc(C#Cc3cc(F)cc(F)c3)cc2F)c1 [Example 49]"
experimental_readout = "log10 of EC50"
obs_value = 2.96


[Q] Report log10 of EC50 for Cn1nccc1S(=O)(=O)Nc1c(F)cc(C#Cc2cncc(F)c2)cc1F [Example 39] tested on human mGlu4 receptor (Homo sapiens (Human), UniProt Q14833).
[A] 4.02

[Q] Quick one: O=S(=O)(Nc1c(F)cc(C#Cc2ccccc2)cc1F)c1cccc(Cl)c1C(F)(F)F [Example 21]
[A] 4.18

[Q] Then what about the compound CC(C)(C)c1cnn(-c2cc(F)c(NS(=O)(=O)c3cc(Cl)cc(Cl)c3)c(F)c2)c1 [Example 60] ?
[A] 3.83

[Q] Item: Cc1cc(F)c(C)c(S(=O)(=O)Nc2c(F)cc(C#Cc3cccnc3)cc2F)c1 [Example 50]
[A] 2.44

[Q] // query: Cc1c(Cl)cccc1S(=O)(=O)Nc1c(F)cc(C#Cc2cncc(Cl)c2)cc1F [Example 55]
[A] 3.28

[Q] Moving on to Cc1cc(F)c(C)c(S(=O)(=O)Nc2c(F)cc(C#Cc3ccccc3)cc2F)c1 [Example 40]
[A] 2.91

[Q] Field entry: O=S(=O)(Nc1c(F)cc(C#Cc2ccccc2)cc1F)c1cncc(Cl)c1 [Example 23]
[A] 3.49

[Q] Now the same for COCc1c(Cl)cccc1S(=O)(=O)Nc1c(F)cc(C#Cc2ccccc2)cc1F [Example 32]
[A] 3.59

[Q] Same lookup for Cc1nn(C)cc1S(=O)(=O)Nc1c(F)cc(C#Cc2ccccc2)cc1F [Example 41] , please.
[A] 3.97

----------
- EXPERIMENTAL_SYSTEM: human mGlu4 receptor (Homo sapiens (Human), UniProt Q14833)
- RUN_DESCRIPTION: Intracellular Ca2+ mobilization assay (FLIPR), mGlu4 NAM
- CONDITION_NOTES: HEK-293 cells stably transfected with human mGlu4; inhibition of L-AP4 (EC80) response; IC50
Quick list: log10 EC50 per entry.
Answers are given as log10 of EC50 in µM.

[[record]]
compound = "Cn1nccc1S(=O)(=O)Nc1c(F)cc(C#Cc2ccccc2)cc1F [Example 25]"
obs_value = 0.03


Shift focus to the following entry.
[Q] Report log10 EC50 for Cc1c(Cl)cccc1S(=O)(=O)Nc1c(F)cc(C#Cc2cccc(F)c2)cc1F [Example 43] please.
[A] 0.10

----------
- EXPERIMENTAL_SYSTEM: human mGlu4 receptor (Homo sapiens (Human), UniProt Q14833)
- RUN_DESCRIPTION: Intracellular Ca2+ mobilization assay (FLIPR), mGlu4 NAM
- CONDITION_NOTES: HEK-293 cells stably transfected with human mGlu4; inhibition of L-AP4 (EC80) response; IC50
Recorded EC50 by entry
Dear colleague, please return just the value in nM, with no unit written.

Known EC50 results, listed for orientation:
[[record]]
chemical_smiles = "O=S(=O)(Nc1c(F)cc(C#Cc2ccccc2)cc1F)c1ccc(Cl)cc1Cl"
obs_value = 15700

[[record]]
chemical_smiles = "Cc1cc(F)c(C)c(S(=O)(=O)Nc2c(F)cc(C#Cc3cccc(F)c3)cc2F)c1"
obs_value = 1320

[[record]]
chemical_smiles = "Cc1c(Cl)cccc1S(=O)(=O)Nc1c(F)cc(C#Cc2ccccc2)cc1F"
obs_value = 1080


[Q] Provide the documented EC50 with human mGlu4 receptor (Homo sapiens (Human), UniProt Q14833) as the system for "Cc1cccc(S(=O)(=O)Nc2c(F)cc(C#Cc3ccccc3)cc2F)c1Cl"
[A] 1560

----------
- EXPERIMENTAL_SYSTEM: human mGlu4 receptor (Homo sapiens (Human))
- RUN_DESCRIPTION: Intracellular Ca2+ mobilization assay (FLIPR), mGlu4 NAM
- CONDITION_NOTES: HEK-293 cells stably transfected with human mGlu4; inhibition of L-AP4 (EC80) response; IC50
The threshold is 1000 nM. Values of EC50 beneath it are tagged TRUE; values meeting or exceeding it are tagged FALSE.

Consider the following illustrative entries.
[[record]]
chemical_smiles = "Cc1cc(F)c(C)c(S(=O)(=O)Nc2c(F)cc(C#Cc3cccc(Cl)c3)cc2F)c1"
assigned_label = "FALSE"

[[record]]
chemical_smiles = "O=S(=O)(Nc1c(F)cc(C#Cc2cncc(F)c2)cc1F)c1cccc(Cl)c1Cl"
assigned_label = "TRUE"

[[record]]
chemical_smiles = "Cc1c(Cl)cc(F)cc1S(=O)(=O)Nc1c(F)cc(C#Cc2cncc(F)c2)cc1F"
assigned_label = "TRUE"

[[record]]
chemical_smiles = "O=S(=O)(Nc1c(F)cc(C#Cc2ccccc2)cc1F)c1ccccn1"
assigned_label = "FALSE"


[Q] Criterion: EC50 strictly below 1000 nM. Is it met by "Cc1c(Cl)cccc1S(=O)(=O)Nc1c(F)cc(C#Cc2cncc(F)c2)cc1F" ?
[A] TRUE

[Q] Try the compound "Cc1cccc(C#Cc2cc(F)c(NS(=O)(=O)c3cc(C)cc(F)c3C)c(F)c2)c1"
[A] FALSE

[Q] Field entry: "O=S(=O)(Nc1c(F)cc(C#Cc2ccccc2)cc1F)c1cccnc1Cl"
[A] FALSE

[Q] Please do the same for "O=S(=O)(Nc1c(F)cc(C#Cc2ccccc2)cc1F)c1ccccc1C(F)(F)F" as well.
[A] FALSE

----------
- EXPERIMENTAL_SYSTEM: human mGlu4 receptor (Homo sapiens (Human), UniProt Q14833)
- RUN_DESCRIPTION: Intracellular Ca2+ mobilization assay (FLIPR), mGlu4 NAM
- CONDITION_NOTES: HEK-293 cells stably transfected with human mGlu4; inhibition of L-AP4 (EC80) response; IC50
This listing pairs molecules with measured EC50.
Please state the number and follow it with the unit.

Some entries whose results are on file:
[[record]]
molecule = "Cc1cc(Cl)c(C)c(S(=O)(=O)Nc2c(F)cc(C#Cc3cncc(F)c3)cc2F)c1 [Example 54, 2,2,2-trifluoroacetate]"
obs_value = "0.918 µM"

[[record]]
molecule = "O=S(=O)(Nc1c(F)cc(C#Cc2ccccc2)cc1F)c1ccccc1F"
obs_value = "4.64 µM"

[[record]]
molecule = "Cc1ccc(Cl)c(S(=O)(=O)Nc2c(F)cc(C#Cc3ccccc3)cc2F)c1"
obs_value = "1.26 µM"

[[record]]
molecule = "Cc1ncccc1S(=O)(=O)Nc1c(F)cc(C#Cc2ccccc2)cc1F"
obs_value = "2.89 µM"

[[record]]
molecule = "O=S(=O)(Nc1c(F)cc(C#Cc2ccccc2)cc1F)c1ccccc1Cl"
obs_value = "4.28 µM"


Let us move to another entry and its EC50.
[Q] Using the record for "COc1ccc(Cl)c(S(=O)(=O)Nc2c(F)cc(C#Cc3ccccc3)cc2F)c1" , report its EC50.
[A] 3.94 µM

----------
- EXPERIMENTAL_SYSTEM: human mGlu4 receptor (Homo sapiens (Human))
- RUN_DESCRIPTION: Intracellular Ca2+ mobilization assay (FLIPR), mGlu4 NAM
- CONDITION_NOTES: HEK-293 cells stably transfected with human mGlu4; inhibition of L-AP4 (EC80) response; IC50
EXPERIMENTAL_READOUT: pEC50
// pEC50 is dimensionless: -log10 of concentration (M)

[[record]]
chemical_smiles = "O=S(=O)(Nc1c(F)cc(C#Cc2cncc(F)c2)cc1F)c1cccc(Cl)c1"
experimental_system = "human mGlu4 receptor (Homo sapiens (Human))"
experimental_readout = "pEC50"
obs_value = 5.98


[Q] Could you share which pEC50 value was measured for "Cc1ccncc1S(=O)(=O)Nc1c(F)cc(C#Cc2ccccc2)cc1F" ?
[A] 5.85

[Q] Likewise for "COc1cccc(C#Cc2cc(F)c(NS(=O)(=O)c3cc(C)cc(F)c3C)c(F)c2)c1" ?
[A] 5.98
